assay: Cmax in Sprague-Dawley rat at 5 mg/kg, po administered as single dose by LC-MS/MS analysis; format: ADME, organism-based; set-up: dose 5 mg/kg, route oral; settings: in vivo
Define the label as Yes when Cmax is strictly less than 0.08 µg/mL and as No in all remaining cases.

COMPOUND: CCN1CCN(c2ccc(Nc3ncc(F)c(-c4ccc5c(c4)C4(CCCC4)C(C)=N5)n3)nc2)CC1
CLASS ASSIGNMENT: No

COMPOUND: CC1=Nc2c(F)cc(-c3nc(Nc4ccc(C5CCN(C)CC5)cn4)ncc3F)cc2C12CCCC2 [CROZBACICLIB]
CLASS ASSIGNMENT: No

COMPOUND: CCN1CCN(c2ccc(Nc3ncc(F)c(-c4cc(F)c5c(c4)C4(CCCC4)C(C)=N5)n3)nc2)CC1
CLASS ASSIGNMENT: Yes

COMPOUND: CCN1CCN(Cc2ccc(Nc3ncc(F)c(-c4cc(F)c5c(c4)C(C)(CC)C(C)=N5)n3)nc2)CC1 (stereo not given)
CLASS ASSIGNMENT: Yes

In the following, a different compound is considered.
Qu. Criterion: Cmax strictly below 0.08 µg/mL. Is it met by CCN1CCN(Cc2ccc(Nc3ncc(F)c(-c4cc(F)c5c(c4)C4(CCCC4)C(C)=N5)n3)nc2)CC1 ?
Ans. Yes

---

target: Cyclin-dependent kinase 4/cyclin D1 (Homo sapiens); assay: Inhibition of CDK4/Cyclin-D1 (unknown origin) using histone-H1 as substrate after 90 mins by ADP-Glo assay
Sequence (P11802 whole entry): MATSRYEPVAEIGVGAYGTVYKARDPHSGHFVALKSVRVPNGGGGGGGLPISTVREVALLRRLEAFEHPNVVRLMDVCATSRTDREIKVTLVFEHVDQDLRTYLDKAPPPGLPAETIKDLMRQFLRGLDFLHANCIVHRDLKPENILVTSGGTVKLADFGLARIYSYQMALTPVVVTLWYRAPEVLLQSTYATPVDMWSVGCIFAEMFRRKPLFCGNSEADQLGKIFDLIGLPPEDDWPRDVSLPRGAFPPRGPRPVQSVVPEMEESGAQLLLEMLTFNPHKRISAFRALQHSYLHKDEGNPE
Sequence (P24385 whole entry, further chain): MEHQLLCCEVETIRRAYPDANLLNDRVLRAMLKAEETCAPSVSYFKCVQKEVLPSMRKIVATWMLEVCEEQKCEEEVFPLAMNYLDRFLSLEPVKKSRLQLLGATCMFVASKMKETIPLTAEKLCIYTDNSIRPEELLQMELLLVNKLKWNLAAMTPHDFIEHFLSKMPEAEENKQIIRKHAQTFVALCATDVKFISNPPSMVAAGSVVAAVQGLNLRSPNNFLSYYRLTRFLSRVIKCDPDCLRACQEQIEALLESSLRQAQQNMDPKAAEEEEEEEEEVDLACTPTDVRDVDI
PARAMETER MEASURED: IC50 (nM)
Entry rule: numbers only, all in nM.

Consider the reported IC50 for these molecules:
MOLECULE: CC1=Nc2c(F)cc(-c3nc(Nc4ccc(N5CCN(C(C)C)CC5)cn4)ncc3F)cc2C12CCCC2
MEASUREMENT UNITS: nM
IC50: 78
--
MOLECULE: CCC1(C)C(C)=Nc2ccc(-c3nc(Nc4ccc(N5CCN(C)CC5)cn4)ncc3F)cc21 (stereo not drawn)
MEASUREMENT UNITS: nM
IC50: 35

We now examine a further molecule.
Qu. IC50 for CCN1CCC(c2ccc(Nc3ncc(F)c(-c4cc(F)c5c(c4)C(C)(CC)C(C)=N5)n3)nc2)CC1 (stereo not drawn) ?
Ans. 16

Reference source for all entries: ChEMBL document CHEMBL4251601
